Answer each item with its documented survival.
- System: DeltatarO mutant
- ASSAY_INFO: S. aureus survival, RN4220 and DeltatarO strains – OD600, teichoic acid synthesis inhibitors, primary screen (AID 463173)
- STATED_CONDITIONS: S. aureus RN4220 wild type/DeltatarO growth, OD600, 18 h, stronger effect = lower value, screened at 18.75 µg/mL (by protocol)
Out of some 52,000 compounds screened, about 4,300 (8.3%) were called active. This is one part of a sample in which actives are shown more often than they occur.
Answers are plain numbers, in %.

Looking up Cc1ccsc1CN(C(=O)COc1ccc(Br)cc1)C1CCS(=O)(=O)C1 (stereo not given) , I found its survival recorded as 73

Just so you know, measured survival for Cc1cc(C)c2c(=O)[nH]c(SCC(=O)NCCc3ccccc3)nc2n1 came out at 61

Noted for COc1ccc(-n2ccn(CC(=O)Nc3ccccc3C(F)(F)F)c(=O)c2=O)cc1OC : its survival reads 80

compound COC(=O)c1c(NC(=O)c2cccs2)sc2c1C(C(=O)OC)CC2 (stereo not given) , survival observed: 94

New cases:
Given item CN(C(=O)CSc1nc2ccc(NC(=O)COc3ccc(F)cc3)cc2s1)c1ccccc1 , the value recorded as its survival is 73
